In this section we review reported IC50 values for a set of compounds.
system: KB; experiment: Cytotoxicity against human KB cells; type: functional, cell-based
measure-name: IC50 (µg/mL)

>>> measured_value("CCN(CC)CCCC(C)Nc1ccnc2cc(Cl)ccc12 (stereo not drawn) [CHLOROQUINE]")
17.4
>>> measured_value("CCOC(=O)[C@H]1[C@@H](OC(C)=O)[C@@H]2[C@@]3(C)C=CC(=O)[C@@](C)(C(=O)OC)C3=CC(=O)[C@@]2(C)[C@@]23O[C@@H]2C[C@@H](c2ccoc2)[C@]13C [HIRITIN]")
0.5
>>> measured_value("CC(=O)O[C@@H]1C[C@H]2C(C)(C)C(=O)C=C[C@]2(C)[C@H]2CC[C@@]3(C)[C@H](c4ccoc4)OC(=O)[C@H]4O[C@]43[C@@]21C [GEDUNIN]")
2.3
>>> measured_value("CC(=O)O[C@@H]1C[C@H]2C(C)(C)C(=O)C=C[C@]2(C)[C@H]2CC[C@@]3(C)[C@H](c4coc(C(C)=O)c4)OC(=O)[C@H]4O[C@]43[C@@]21C")
10.9
>>> measured_value("CC(=O)O[C@@H]1C[C@H]2C(C)(C)C(=O)C=C[C@]2(C)[C@H]2CC[C@@]3(C)[C@H](c4ccoc4C(C)=O)OC(=O)[C@H]4O[C@]43[C@@]21C")
9.4
>>> measured_value("OC(c1cc(C(F)(F)F)nc2c(C(F)(F)F)cccc12)C1CCCCN1 (stereo not drawn) [MEFLOQUINE]")
3.5

Values were extracted from ChEMBL document CHEMBL1145690.
